MEASURED ON: PI3K δ (Homo sapiens)
Construct: purchased Upstate / Millipore Corporation
Sequence (O00329 whole entry): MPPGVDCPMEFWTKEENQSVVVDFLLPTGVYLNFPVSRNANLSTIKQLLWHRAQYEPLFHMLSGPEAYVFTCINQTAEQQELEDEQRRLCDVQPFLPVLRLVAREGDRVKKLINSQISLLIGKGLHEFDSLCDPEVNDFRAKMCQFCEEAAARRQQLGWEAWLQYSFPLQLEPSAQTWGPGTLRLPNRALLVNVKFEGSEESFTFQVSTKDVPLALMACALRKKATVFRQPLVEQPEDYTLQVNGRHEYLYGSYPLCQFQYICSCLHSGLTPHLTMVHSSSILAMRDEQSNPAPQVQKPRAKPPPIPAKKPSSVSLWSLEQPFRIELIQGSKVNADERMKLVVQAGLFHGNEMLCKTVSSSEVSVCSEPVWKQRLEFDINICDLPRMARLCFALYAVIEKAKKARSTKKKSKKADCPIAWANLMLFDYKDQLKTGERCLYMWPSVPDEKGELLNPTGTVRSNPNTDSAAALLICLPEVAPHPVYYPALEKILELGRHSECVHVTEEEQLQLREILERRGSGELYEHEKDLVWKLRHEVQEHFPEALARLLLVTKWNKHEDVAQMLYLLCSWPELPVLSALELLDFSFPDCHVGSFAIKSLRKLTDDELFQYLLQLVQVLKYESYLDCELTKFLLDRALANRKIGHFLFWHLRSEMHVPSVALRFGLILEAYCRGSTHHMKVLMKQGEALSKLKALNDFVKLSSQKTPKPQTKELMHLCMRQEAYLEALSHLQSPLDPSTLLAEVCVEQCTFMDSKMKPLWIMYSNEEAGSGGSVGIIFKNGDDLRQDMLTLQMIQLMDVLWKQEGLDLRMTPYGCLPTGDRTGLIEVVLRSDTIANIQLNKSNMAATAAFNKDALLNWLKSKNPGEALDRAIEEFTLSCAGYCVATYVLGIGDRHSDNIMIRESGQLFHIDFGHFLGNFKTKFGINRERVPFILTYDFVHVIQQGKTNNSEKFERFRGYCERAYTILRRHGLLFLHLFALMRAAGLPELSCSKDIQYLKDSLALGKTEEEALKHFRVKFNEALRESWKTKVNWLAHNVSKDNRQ
Sequence (P27986 whole entry partner): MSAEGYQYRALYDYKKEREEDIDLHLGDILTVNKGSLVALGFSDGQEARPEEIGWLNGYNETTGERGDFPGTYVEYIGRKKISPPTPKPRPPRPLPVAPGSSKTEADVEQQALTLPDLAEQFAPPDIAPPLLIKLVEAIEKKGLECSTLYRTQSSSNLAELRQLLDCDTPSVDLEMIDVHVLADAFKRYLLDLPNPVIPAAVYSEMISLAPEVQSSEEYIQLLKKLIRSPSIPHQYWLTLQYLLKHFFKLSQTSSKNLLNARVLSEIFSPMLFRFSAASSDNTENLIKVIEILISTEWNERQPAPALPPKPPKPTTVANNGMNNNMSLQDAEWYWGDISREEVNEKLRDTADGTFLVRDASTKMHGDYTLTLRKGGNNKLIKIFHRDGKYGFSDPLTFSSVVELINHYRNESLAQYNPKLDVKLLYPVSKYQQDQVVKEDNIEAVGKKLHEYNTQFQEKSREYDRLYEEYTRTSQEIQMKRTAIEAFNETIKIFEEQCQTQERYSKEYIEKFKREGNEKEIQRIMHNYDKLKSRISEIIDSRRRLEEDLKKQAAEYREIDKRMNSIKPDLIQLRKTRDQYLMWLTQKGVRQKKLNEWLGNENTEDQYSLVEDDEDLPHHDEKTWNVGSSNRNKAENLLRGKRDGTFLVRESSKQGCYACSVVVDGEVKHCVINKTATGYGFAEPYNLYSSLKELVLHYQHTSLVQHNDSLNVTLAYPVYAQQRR
EXPERIMENTAL DETAILS: PI 3-Kinase (human) HTRF assay, PI3K δ
Assay type: biochemical
CONDITION NOTES: read-out: PI3K δ IC50
METRIC: IC50

Solved entries:
• Cc1cn(C2CCN(c3cnc4ccc(-c5ccc6oc(N)nc6c5)cc4n3)CC2)cn1 [Compound 338] = < 10 µM
• Nc1nc2cc(-c3ccc4ncc(NCCCN5CCOCC5)nc4c3)ccc2o1 [Compound 222] = < 0.1 µM
• CCN(CC)CCn1cnc2ccc(-c3ccc4oc(N)nc4c3)cc2c1=O [Compound 224] = > 10 µM

Case Nc1nc2cc(-c3ccn4ncc(C(=O)N5CCOCC5)c4c3)ccc2o1 [Compound 347] , PI3K δ (Homo sapiens), IC50 recorded as > 10 µM

Case O=C(c1cnc2ccc(-c3cncc(NS(=O)(=O)c4ccccc4)c3)cn12)N1CCOCC1 [Compound 424] , PI3K δ (Homo sapiens), IC50 recorded as < 10 µM

Case Nc1nc2cc(-c3ccc4ncc(-c5cccnc5)n4c3)ccc2o1 [Compound 37] , PI3K δ (Homo sapiens), IC50 recorded as < 0.1 µM

Case Nc1nc2cc(-c3cnc4ccc(C(=O)N5C6CCC5COC6)cn34)ccc2o1 [Compound 540] , PI3K δ (Homo sapiens), IC50 recorded as > 10 µM

Case Nc1nc2cc(-c3ccc4ncn(CCCN5CCOCC5)c(=O)c4c3)ccc2o1 [Compound 290] , PI3K δ (Homo sapiens), IC50 recorded as > 10 µM
